system: glycogen synthase kinase-3 (GSK3A per assay name; protocol says GSK3B); experiment: GSK3 binders on small-molecule microarrays, primary screen, biochemical, small-molecule microarray, 635 nm fluorescence, GSK3A (AID 1103); conditions: small-molecule microarray binding, fluorescence 635 nm; higher = more signal; further: the record names both GSK3A and GSK3B
measurement_name: composite z-score

compound=C=CCN1C(=O)[C@]2(O[C@H](CCn3cc(CCO)nn3)[C@@H]([Si](C)(C)c3ccc(OC)cc3)[C@@H]2C)c2cc(NC(=O)c3ccc(OC)cc3)ccc21 measurement_name="composite z-score" observed_result=1.23
compound=CN(C)CCCC[C@@H]1NC(=O)[C@@H]2C[C@H](C(=O)O)[C@H](c3ccc(O)cc3)N2C1=O measurement_name="composite z-score" observed_result=1.21
compound=CCCCO[C@H]1C[C@H]2C(Br)=C[C@@]1(CO)C(=O)[C@]21CO1 measurement_name="composite z-score" observed_result=-0.243
compound=C=CCc1cccc([C@@H]2[C@@H](C)CC[C@H]3C(=O)N4[C@H](c5cccc(CC=C)c5)[C@@H](C)CC[C@H]4C(=O)N23)c1 measurement_name="composite z-score" observed_result=0.365
compound=O=C1O[C@H](c2ccccc2)[C@H](c2ccccc2)N2[C@H]1[C@@H](C(=O)Nc1nc3ccccc3s1)[C@]1(C(=O)Nc3ccc(C#CC4(O)CCCCCC4)cc31)[C@H]2c1ccc(O)cc1 measurement_name="composite z-score" observed_result=1.27
compound=O=C1O[C@H](c2ccccc2)[C@H](c2ccccc2)N2[C@H]1[C@@H](C(=O)NC[C@H](O)c1ccccc1)[C@]1(C(=O)Nc3ccc(C#CC4=CCCCC4)cc31)[C@H]2c1ccc(OCCO)cc1 measurement_name="composite z-score" observed_result=1.27
compound=CO[C@H]1COC(=O)[C@@H](OCc2ccccc2)C=C[C@H](C)[C@@H](OC)COC(=O)[C@H](OCc2ccccc2)C=C[C@@H]1C measurement_name="composite z-score" observed_result=-0.0762
compound=CSCC[C@@H]1NC(=O)CC=C[C@@H](C)COC(=O)[C@H](CCSC)NC(=O)CC=C[C@@H](C)COC1=O measurement_name="composite z-score" observed_result=0.0287
compound="COC(=O)C1=CC(c2ccc(CO)cc2)=CC(c2cccs2)N(Cc2cccc(OC(F)(F)F)c2)C=C1C(=O)OC (centres undefined)" measurement_name="composite z-score" observed_result=1.26
